Form field: IC50 (one value per entry).
target: Estrogen receptor (Homo sapiens, UniProt Q92731+P03372); assay type: functional, cell-based; conditions: ishikawa
metric-name: IC50 (nM)

[
  {
    "compound": "Oc1ccc2c3c(sc2c1)Cc1cccc(O)c1C3c1ccc(C(O)CCN2CCCCC2)cc1 (centres undefined)",
    "tested-system": "Estrogen receptor (Homo sapiens, UniProt Q92731+P03372)",
    "measure-unit": "nM",
    "experimental-value": 680
  },
  {
    "compound": "Oc1ccc2c(ccc3cc4ccc(O)cc4c(-c4ccc(OCCN5CCCCC5)cc4)c32)c1",
    "tested-system": "Estrogen receptor (Homo sapiens, UniProt Q92731+P03372)",
    "measure-unit": "nM",
    "experimental-value": 820
  },
  {
    "compound": "Oc1ccc2c(c1)C(c1ccc(C(O)CCN3CCCCC3)cc1)c1c(sc3cc(O)ccc13)C2 (centres undefined)",
    "tested-system": "Estrogen receptor (Homo sapiens, UniProt Q92731+P03372)",
    "measure-unit": "nM",
    "experimental-value": 53
  },
  {
    "compound": "Oc1ccc2c3c(sc2c1)Cc1ccccc1C3c1ccc(C(O)CCN2CCCCC2)cc1 (centres undefined)",
    "tested-system": "Estrogen receptor (Homo sapiens, UniProt Q92731+P03372)",
    "measure-unit": "nM",
    "experimental-value": 710
  }
]

====

Below, each entry is listed with its recorded IC50.
molecular target: Estrogen receptor (Homo sapiens, UniProt Q92731+P03372); assay: Antagonist effect against 10 pM 17-beta-estradiol induced MCF-7 cell proliferation; assay type: functional, cell-based

[
  {
    "compound": "Oc1ccc2c3c(sc2c1)Cc1ccccc1C3c1ccc(C(O)CCN2CCCCC2)cc1 (centres undefined)",
    "IC50 (nM)": 17
  },
  {
    "compound": "Oc1ccc2c(c1)sc1cc3ccc(O)cc3c(-c3ccc(C(O)CCN4CCCCC4)cc3)c12 (centres undefined)",
    "IC50 (nM)": 1
  },
  {
    "compound": "Oc1ccc2c(c1)C(c1ccc(C(O)CCN3CCCCC3)cc1)c1c(sc3cc(O)ccc13)C2 (centres undefined)",
    "IC50 (nM)": 0.9
  },
  {
    "compound": "Oc1ccc2c3c(sc2c1)Cc1cccc(O)c1C3c1ccc(C(O)CCN2CCCCC2)cc1 (centres undefined)",
    "IC50 (nM)": 42
  },
  {
    "compound": "Oc1ccc2c(c1)Cc1sc3cc(O)ccc3c1C2c1ccc(C(O)CCN2CCCCC2)cc1 (centres undefined)",
    "IC50 (nM)": 0.7
  },
  {
    "compound": "Oc1ccc2c(ccc3cc4ccc(O)cc4c(-c4ccc(OCCN5CCCCC5)cc4)c32)c1",
    "IC50 (nM)": 57
  },
  {
    "compound": "Oc1ccc2c3c(ccc2c1)Cc1c(O)cccc1C3c1ccc(OCCN2CCCCC2)cc1 (centres undefined)",
    "IC50 (nM)": 2.9
  },
  {
    "compound": "Oc1ccc2c(c1)C(c1ccc(OCCN3CCCCC3)cc1)c1c(ccc3cc(O)ccc13)C2 (centres undefined)",
    "IC50 (nM)": 6.6
  },
  {
    "compound": "Oc1ccc2c3c(ccc2c1)Cc1cccc(O)c1C3c1ccc(OCCN2CCCCC2)cc1 (centres undefined)",
    "IC50 (nM)": 68
  }
]

====

target: Estrogen receptor (Homo sapiens, UniProt Q92731+P03372); assay: Agonist activity as alkaline phosphatase induction in Ishikawa endometrial cells compared to E2; format: functional, cell-based
metric-name: EC50 (nM)

[
  {
    "molecule": "Oc1ccc2c(c1)sc1cc3ccc(O)cc3c(-c3ccc(C(O)CCN4CCCCC4)cc3)c12 (centres undefined)",
    "metric-name": "EC50",
    "experimental-value": 1.6
  },
  {
    "molecule": "Oc1ccc2c(c1)Cc1sc3cc(O)ccc3c1C2c1ccc(C(O)CCN2CCCCC2)cc1 (centres undefined)",
    "metric-name": "EC50",
    "experimental-value": 0.4
  },
  {
    "molecule": "Oc1ccc2c3c(ccc2c1)Cc1c(O)cccc1C3c1ccc(OCCN2CCCCC2)cc1 (centres undefined)",
    "metric-name": "EC50",
    "experimental-value": 0.7
  },
  {
    "molecule": "Oc1ccc2c(ccc3cc4ccc(O)cc4c(-c4ccc(OCCN5CCCCC5)cc4)c32)c1",
    "metric-name": "EC50",
    "experimental-value": 10
  },
  {
    "molecule": "Oc1ccc2c3c(sc2c1)Cc1cccc(O)c1C3c1ccc(C(O)CCN2CCCCC2)cc1 (centres undefined)",
    "metric-name": "EC50",
    "experimental-value": 3.1
  },
  {
    "molecule": "Oc1ccc2c(c1)C(c1ccc(C(O)CCN3CCCCC3)cc1)c1c(sc3cc(O)ccc13)C2 (centres undefined)",
    "metric-name": "EC50",
    "experimental-value": 0.9
  },
  {
    "molecule": "Oc1ccc2c3c(ccc2c1)Cc1cccc(O)c1C3c1ccc(OCCN2CCCCC2)cc1 (centres undefined)",
    "metric-name": "EC50",
    "experimental-value": 28
  },
  {
    "molecule": "Oc1ccc2c3c(sc2c1)Cc1ccccc1C3c1ccc(C(O)CCN2CCCCC2)cc1 (centres undefined)",
    "metric-name": "EC50",
    "experimental-value": 3.5
  },
  {
    "molecule": "Oc1ccc2c(c1)C(c1ccc(OCCN3CCCCC3)cc1)c1c(ccc3cc(O)ccc13)C2 (centres undefined)",
    "metric-name": "EC50",
    "experimental-value": 2.6
  }
]

====

experiment: Inhibition of [3H]estradiol binding to Estrogen receptor alpha
pKi: −log10 of the molar value.
The reader will find reported pKi values listed item by item below.
metric-name: pKi

[
  {
    "compound": "Oc1ccc2c3c(ccc2c1)Cc1cccc(O)c1C3c1ccc(OCCN2CCCCC2)cc1 (centres undefined)",
    "metric-name": "pKi",
    "experimental-value": 8.11
  },
  {
    "compound": "Oc1ccc2c(c1)Cc1ccc3cc(O)ccc3c1C2c1ccc(OCCN2CCCCC2)cc1 (stereo in doubt; form 2)",
    "metric-name": "pKi",
    "experimental-value": 9.10
  },
  {
    "compound": "Oc1ccc2c3c(sc2c1)Cc1cccc(O)c1C3c1ccc(C(O)CCN2CCCCC2)cc1 (centres undefined)",
    "metric-name": "pKi",
    "experimental-value": 8.59
  },
  {
    "compound": "Oc1ccc2c(c1)Cc1ccc3cc(O)ccc3c1C2c1ccc(OCCN2CCCCC2)cc1 (single isomer, unassigned)",
    "metric-name": "pKi",
    "experimental-value": 9.15
  }
]

====

experiment: Inhibition of [3H]estradiol binding to Estrogen receptor alpha
pKi: −log10 of the molar value.
Response key: t means pKi >= 9; f means pKi < 9.

[
  {
    "compound": "Oc1ccc2c(c1)sc1cc3ccc(O)cc3c(-c3ccc(C(O)CCN4CCCCC4)cc3)c12 (centres undefined)",
    "assigned-label": "t"
  },
  {
    "compound": "Oc1ccc2c(c1)C(c1ccc(C(O)CCN3CCCCC3)cc1)c1c(sc3cc(O)ccc13)C2 (centres undefined)",
    "assigned-label": "t"
  },
  {
    "compound": "CCC(=C(c1ccc(O)cc1)c1ccc(OCCN(C)C)cc1)c1ccccc1",
    "assigned-label": "t"
  },
  {
    "compound": "Oc1ccc2c3c(sc2c1)Cc1ccccc1C3c1ccc(C(O)CCN2CCCCC2)cc1 (centres undefined)",
    "assigned-label": "f"
  }
]

====

assay: Inhibition of [3H]estradiol binding to Estrogen receptor beta
Overview of recorded Ki for various molecules

[
  {
    "molecule": "Oc1ccc2c(c1)C(c1ccc(OCCN3CCCCC3)cc1)c1c(ccc3cc(O)ccc13)C2 (stereo not drawn)",
    "Ki": "3.2 nM"
  },
  {
    "molecule": "Oc1ccc2c(c1)Cc1sc3cc(O)ccc3c1C2c1ccc(C(O)CCN2CCCCC2)cc1 (stereo not drawn)",
    "Ki": "1.3 nM"
  },
  {
    "molecule": "Oc1ccc2c(c1)C(c1ccc(C(O)CCN3CCCCC3)cc1)c1c(sc3cc(O)ccc13)C2 (stereo not drawn)",
    "Ki": "0.9 nM"
  }
]

====

assay: Inhibition of [3H]estradiol binding to Estrogen receptor alpha

[
  {
    "molecule": "Oc1ccc2c(c1)C(c1ccc(OCCN3CCCCC3)cc1)c1c(ccc3cc(O)ccc13)C2 (stereo not given)",
    "measure-unit": "nM",
    "Ki": 1
  },
  {
    "molecule": "Oc1ccc2c(c1)Cc1ccc3cc(O)ccc3c1C2c1ccc(OCCN2CCCCC2)cc1 (stereo in doubt; form 1)",
    "measure-unit": "nM",
    "Ki": 1.1
  },
  {
    "molecule": "Oc1ccc2c(ccc3cc4ccc(O)cc4c(-c4ccc(OCCN5CCCCC5)cc4)c32)c1",
    "measure-unit": "nM",
    "Ki": 0.8
  },
  {
    "molecule": "Oc1ccc2c(c1)Cc1sc3cc(O)ccc3c1C2c1ccc(C(O)CCN2CCCCC2)cc1 (stereo not given)",
    "measure-unit": "nM",
    "Ki": 0.7
  },
  {
    "molecule": "Oc1ccc2c3c(ccc2c1)Cc1c(O)cccc1C3c1ccc(OCCN2CCCCC2)cc1 (stereo not given)",
    "measure-unit": "nM",
    "Ki": 1.1
  }
]
